- SYSTEM TESTED: HSV-1 helicase-primase (Human herpesvirus 1, UniProt P10189+P10236)
- Construct: made in house; host or cells: Sf21 insect cells triply infected with recombinant baculoviruses (UL5, UL8, UL52)
- Sequence (P10192 whole entry): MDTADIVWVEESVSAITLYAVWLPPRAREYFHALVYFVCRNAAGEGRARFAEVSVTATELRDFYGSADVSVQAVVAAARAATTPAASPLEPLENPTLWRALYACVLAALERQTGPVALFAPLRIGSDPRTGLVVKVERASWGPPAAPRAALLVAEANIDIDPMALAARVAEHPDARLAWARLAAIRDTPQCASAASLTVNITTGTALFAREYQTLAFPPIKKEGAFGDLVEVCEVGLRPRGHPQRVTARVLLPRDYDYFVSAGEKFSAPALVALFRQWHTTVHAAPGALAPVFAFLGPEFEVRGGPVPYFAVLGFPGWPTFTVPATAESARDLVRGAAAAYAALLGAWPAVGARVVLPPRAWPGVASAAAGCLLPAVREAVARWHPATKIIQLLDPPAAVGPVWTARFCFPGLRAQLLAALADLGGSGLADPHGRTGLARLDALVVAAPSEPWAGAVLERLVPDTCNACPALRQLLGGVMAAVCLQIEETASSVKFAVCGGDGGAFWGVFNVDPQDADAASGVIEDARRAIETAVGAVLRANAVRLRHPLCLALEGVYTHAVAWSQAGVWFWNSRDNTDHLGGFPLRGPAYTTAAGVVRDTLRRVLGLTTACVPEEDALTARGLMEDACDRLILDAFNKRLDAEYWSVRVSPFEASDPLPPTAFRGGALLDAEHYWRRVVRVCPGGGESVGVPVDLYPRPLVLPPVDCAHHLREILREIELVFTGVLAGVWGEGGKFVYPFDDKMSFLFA
- Sequence (P10236 whole entry): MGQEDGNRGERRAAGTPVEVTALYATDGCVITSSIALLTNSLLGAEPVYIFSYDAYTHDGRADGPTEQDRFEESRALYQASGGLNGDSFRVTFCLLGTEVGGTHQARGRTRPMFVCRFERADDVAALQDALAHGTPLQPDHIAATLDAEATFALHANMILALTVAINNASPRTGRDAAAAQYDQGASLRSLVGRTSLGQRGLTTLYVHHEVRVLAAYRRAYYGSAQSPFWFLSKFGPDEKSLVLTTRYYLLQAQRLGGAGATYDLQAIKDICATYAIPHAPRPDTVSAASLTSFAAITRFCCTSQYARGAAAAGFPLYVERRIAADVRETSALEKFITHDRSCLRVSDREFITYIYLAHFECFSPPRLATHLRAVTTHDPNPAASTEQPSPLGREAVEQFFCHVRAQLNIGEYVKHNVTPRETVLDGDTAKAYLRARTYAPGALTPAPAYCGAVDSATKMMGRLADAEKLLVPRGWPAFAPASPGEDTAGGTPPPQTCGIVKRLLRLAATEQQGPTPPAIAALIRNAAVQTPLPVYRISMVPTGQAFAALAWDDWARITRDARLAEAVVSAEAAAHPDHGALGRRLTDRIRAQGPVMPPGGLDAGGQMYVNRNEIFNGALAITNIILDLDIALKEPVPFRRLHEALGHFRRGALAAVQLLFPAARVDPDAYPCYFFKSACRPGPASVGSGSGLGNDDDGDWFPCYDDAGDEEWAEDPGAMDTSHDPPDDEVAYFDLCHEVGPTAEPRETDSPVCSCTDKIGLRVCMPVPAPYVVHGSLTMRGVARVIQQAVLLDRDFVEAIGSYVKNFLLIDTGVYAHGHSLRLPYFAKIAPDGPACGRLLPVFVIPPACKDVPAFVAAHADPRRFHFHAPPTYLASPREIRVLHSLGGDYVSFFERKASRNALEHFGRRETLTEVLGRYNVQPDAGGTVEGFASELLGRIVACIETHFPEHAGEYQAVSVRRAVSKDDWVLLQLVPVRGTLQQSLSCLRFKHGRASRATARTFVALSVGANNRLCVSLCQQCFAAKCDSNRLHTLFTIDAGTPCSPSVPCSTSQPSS
- Sequence (P10189 whole entry): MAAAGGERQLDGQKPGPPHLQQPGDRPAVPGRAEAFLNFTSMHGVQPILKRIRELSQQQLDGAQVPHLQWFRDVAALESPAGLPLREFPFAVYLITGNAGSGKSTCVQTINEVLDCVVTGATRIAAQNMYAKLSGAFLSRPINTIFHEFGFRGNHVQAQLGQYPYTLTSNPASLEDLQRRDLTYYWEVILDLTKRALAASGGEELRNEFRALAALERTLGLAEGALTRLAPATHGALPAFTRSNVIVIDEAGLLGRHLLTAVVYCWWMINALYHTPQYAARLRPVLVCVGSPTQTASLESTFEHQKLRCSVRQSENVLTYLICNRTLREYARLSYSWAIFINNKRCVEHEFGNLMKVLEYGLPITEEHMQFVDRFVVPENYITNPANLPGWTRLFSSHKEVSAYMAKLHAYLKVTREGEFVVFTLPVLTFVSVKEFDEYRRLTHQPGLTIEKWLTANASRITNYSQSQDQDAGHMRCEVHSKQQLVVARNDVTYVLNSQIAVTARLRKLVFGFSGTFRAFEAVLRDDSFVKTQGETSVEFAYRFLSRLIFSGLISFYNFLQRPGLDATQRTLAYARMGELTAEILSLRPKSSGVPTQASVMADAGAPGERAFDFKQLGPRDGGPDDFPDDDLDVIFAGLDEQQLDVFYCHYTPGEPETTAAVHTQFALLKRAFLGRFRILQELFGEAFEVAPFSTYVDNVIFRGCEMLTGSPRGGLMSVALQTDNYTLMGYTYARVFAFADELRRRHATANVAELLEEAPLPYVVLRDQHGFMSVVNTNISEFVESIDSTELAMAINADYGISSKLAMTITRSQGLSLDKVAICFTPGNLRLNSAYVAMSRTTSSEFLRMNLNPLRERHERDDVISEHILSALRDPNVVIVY
- ASSAY DETAILS: HSV-1 DNA-dependent ATPase assay (inhibition of HSV-1 helicase-primase)
- Type: biochemical
- ASSAY SETUP: Group 1 Table 1 entries
PARAMETER: pIC50
Give only the number. pIC50 is defined as minus log10 of concentration in molar units.

Given the compound CN(C)CCN(CC(=O)Nc1ccc(-c2csc(N)n2)cc1)C(=O)C1CCCCC1 [Example 140] , what is its reported pIC50?
4.32

Another compound: Nc1nc(-c2ccc(NC(=O)CN(Cc3ccncc3)C(=O)C3CCCCC3)cc2)cs1 [Example 49]
7.43

Proceed to COc1ccc(CN(CC(=O)Nc2ccc(-c3csc(N)n3)cc2)C(=O)C2CCCCC2)cc1 [Example 46]
7.12

Same thing, different compound: CC(C)(C)CC(=O)N(CC(=O)Nc1ccc(-c2csc(N)n2)cc1)Cc1ccccc1 [Example 42]
7.59

----------
- Tested on: HSV-1 strain F or KOS
- ASSAY DETAILS: Inhibition of herpes simplex virus (HSV-1) replication in cell culture (BHK-21 cells, glycoprotein C ELISA)
- Type: cell-based
- ASSAY SETUP: Human alphaherpesvirus 1, BHK-21, Group 1 Table 1 entries
PARAMETER: log10 EC50 (log10 of the value in nM)
The base-10 logarithm of EC50, taken with EC50 in nM, is what appears here.

Recorded log10 EC50, per entry:
Request the reported log10 EC50 associated with `Cc1nc(CCN(CC(=O)Nc2ccc(-c3csc(N)n3)cc2)C(=O)c2ccncc2)cs1`
3.04

Another compound to check: `Nc1nc(-c2ccc(NC(=O)CN(Cc3ccccc3)C(=O)C3CCCCC3)cc2)cs1`
0.60

Next entry: `CC(C)CN(CC(=O)Nc1ccc(-c2csc(N)n2)cc1)C(=O)OC(C)(C)C`
3.08

What do we get for `Nc1nc(-c2ccc(NC(=O)CN(Cc3cscn3)C(=O)c3ccncc3)cc2)cs1` ?
2.72

With those in mind, consider the next compound.
What value of log10 EC50 has been recorded for this entry: `C[C@@H](c1ccccc1)N(CC(=O)Nc1ccc(-c2csc(N)n2)cc1)C(=O)c1ccncc1`
1.60

----------
- SYSTEM TESTED: HSV-1 helicase-primase (Human herpesvirus 1, UniProt P10189+P10236)
- Construct: made in house; host or cells: Sf21 insect cells triply infected with recombinant baculoviruses (UL5, UL8, UL52)
- ASSAY DETAILS: HSV-1 DNA-dependent ATPase assay (inhibition of HSV-1 helicase-primase)
- Assay type: biochemical
- ASSAY SETUP: Group 1 Table 1 entries
- Description: A) HSV-1 DNA-Dependent ATP Assay (an in Vitro Assay Based on the Inhibition of HSV-1 Helicase-primase). […] The DNA-dependent ATPase assay, described by J. J. Crute et al., Nucleic Acids Res. 1988, 16, 6585, was modified and used to evaluate the capability of the compounds of Group 1-formula 1 to inhibit HSV-1 helicase-primase activity. […] DNA-dependent ATPase activity was calculated from the net absorbance change in the presence and absence of inhibition.
PARAMETER: pIC50
Entry type: numeric. Quantity: pIC50, the -log10 of concentration in molar units.

Record lookup: for HSV-1 helicase-primase (Human herpesvirus 1, UniProt P10189+P10236), what pIC50 belongs to `CC(C)C(=O)N(CC(=O)Nc1ccc(-c2csc(N)n2)cc1)Cc1ccccc1` ?
5.80

Okay, and `Nc1nc(-c2ccc(NC(=O)CN(CCc3ccccc3)C(=O)c3ccncc3)cc2)cs1` ?
6.80

***
# value lookup — system HSV-1 helicase-primase (Human herpesvirus 1, UniProt P10189+P10236), readout pIC50, item `Nc1nc(-c2ccc(NC(=O)CNCc3ccccc3)cc2)cs1`
5.19

Proceed to `CC(C)(C)OC(=O)N(CC(=O)Nc1ccc(-c2csc(N)n2)cc1)Cc1ccccc1`
7.80
